Below, each entry is listed with its recorded IC50.
# target_under_test: BTK (Homo sapiens, UniProt Q06187)
# Sequence (Q06187 whole entry): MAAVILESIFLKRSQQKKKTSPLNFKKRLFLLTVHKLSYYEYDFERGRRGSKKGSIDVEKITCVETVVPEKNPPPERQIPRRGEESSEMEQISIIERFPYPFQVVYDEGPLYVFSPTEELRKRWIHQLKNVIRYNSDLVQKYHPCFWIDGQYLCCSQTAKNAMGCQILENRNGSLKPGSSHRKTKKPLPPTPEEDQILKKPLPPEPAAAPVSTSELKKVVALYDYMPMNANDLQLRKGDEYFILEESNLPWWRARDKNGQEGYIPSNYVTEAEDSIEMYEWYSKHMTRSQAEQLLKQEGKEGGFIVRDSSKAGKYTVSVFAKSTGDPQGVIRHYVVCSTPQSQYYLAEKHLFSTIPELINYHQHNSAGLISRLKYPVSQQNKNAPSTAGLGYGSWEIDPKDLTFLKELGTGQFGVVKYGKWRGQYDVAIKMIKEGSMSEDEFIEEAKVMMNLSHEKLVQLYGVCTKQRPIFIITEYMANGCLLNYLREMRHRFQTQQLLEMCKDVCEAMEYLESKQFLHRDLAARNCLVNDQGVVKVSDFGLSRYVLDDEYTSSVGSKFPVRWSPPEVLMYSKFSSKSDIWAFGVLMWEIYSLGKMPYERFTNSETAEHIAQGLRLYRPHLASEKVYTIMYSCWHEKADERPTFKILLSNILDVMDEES

# molecule, IC50
records = [
    ("O=C(CNc1ccccc1S(=O)(=O)N1CCCCC1)N1CCC[C@@H](Nc2ncnc3[nH]ccc23)C1", "100 to 999 nM"),
]

Inquiry: Quote BTK (Homo sapiens, UniProt Q06187) IC50 for entry `O=C(CNc1ccccc1C(F)(F)F)N1CCC[C@H](Nc2ncnc3[nH]ccc23)C1` .
Reply text: > 10000 nM

Inquiry: Provide the reported IC50 (system: BTK (Homo sapiens, UniProt Q06187)) for O=C1CCc2c(ncnc2N2CCC3CCN(C(=O)CNc4cc(Cl)cc(Cl)c4)CC32)N1 (stereo not shown)
Reply text: 1000 to 10000 nM

Inquiry: Fill: IC50 (BTK (Homo sapiens, UniProt Q06187)) for this molecule CC1C(Nc2ncnc3[nH]ncc23)CCCN1C(=O)CNc1cc(Cl)cc(C(F)(F)F)c1 (stereo not shown)
Reply text: < 100 nM

---

pIC50: −log10 of the molar value.
The next entries give measured pIC50 for BTK (Homo sapiens).

Some compounds with recorded pIC50:
# compound, property_measured, recorded_measurement
data = [
    ("CC1CCCC(NCC(=O)N2CCC[C@H](Nc3ncnc4[nH]ccc34)C2)C1 (some centres unmarked)", "pIC50", "< 5.00"),
    ("CCC[C@@H](Nc1cc(Cl)cc(Cl)c1)C(=O)N1CCCC(Nc2ncnc3[nH]ccc23)C1C (some centres unmarked)", "pIC50", "> 7.00"),
    ("O=C([C@H](Nc1cc(Cl)cc(Cl)c1)C1CC1)N1CCC[C@@H](Nc2ncnc3[nH]ccc23)C1", "pIC50", "6.00 to 7.00"),
    ("CN1CCN(C(=O)c2ccc(-c3cnc4[nH]ccc4c3N[C@H]3CCCN(C(=O)CNc4cc(Cl)cc(Cl)c4)C3)cc2)CC1", "pIC50", "> 7.00"),
]

Inquiry: Identify measured pIC50 corresponding to CN(c1ncnc2[nH]ccc12)C1CCCN(C(=O)CNc2cc(F)cc(Cl)c2)C1C(F)(F)F (centres unmarked)
Reply text: > 7.00

Inquiry: Give a short answer stating reported pIC50 for CCC1CC2CCN(C(=O)CNc3cc(Cl)cc(Cl)c3)CC2N1c1ncnc2[nH]ccc12 (centres unmarked) .
Reply text: > 7.00

Inquiry: Return pIC50 (reported value) for this compound: `Nc1cc(N[C@H]2CCCN(C(=O)CNc3cc(Cl)cc(Cl)c3)C2)ncn1`
Reply text: 5.00 to 6.00

Inquiry: Specify pIC50 for `O=C(CNc1ccccc1S(=O)(=O)N1CCCCC1)N1CCC[C@H](Nc2ncnc3[nH]ccc23)C1` and stop.
Reply text: < 5.00

---

# target_under_test: BTK (Homo sapiens, UniProt Q06187)
pIC50: −log10 of the molar value.
property_measured: pIC50

# molecule, target_under_test, pIC50
records = [
    ("C[C@@H]1C[C@H]2CCN(C(=O)CNc3cc(Cl)cc(Cl)c3)C[C@H]2N1c1ncnc2[nH]ccc12 [Compound 47]", "BTK (Homo sapiens, UniProt Q06187)", "> 7.00"),
    ("CN(c1ncnc2c1CCC(=O)N2)[C@H]1CCCN(C(=O)CNc2cc(Cl)cc(Cl)c2)C1 [Compound 129]", "BTK (Homo sapiens, UniProt Q06187)", "< 5.00"),
]

Now consider the entry below.
Inquiry: Complete the entry with pIC50 for CCC1C(Nc2ncnc3[nH]ncc23)CCCN1C(=O)CNc1cc(F)cc(Cl)c1 (stereo not drawn) [Compound 4]
Reply text: > 7.00
